Molecular target: Cholinesterase (Equus caballus)
Sequence (P81908 whole entry): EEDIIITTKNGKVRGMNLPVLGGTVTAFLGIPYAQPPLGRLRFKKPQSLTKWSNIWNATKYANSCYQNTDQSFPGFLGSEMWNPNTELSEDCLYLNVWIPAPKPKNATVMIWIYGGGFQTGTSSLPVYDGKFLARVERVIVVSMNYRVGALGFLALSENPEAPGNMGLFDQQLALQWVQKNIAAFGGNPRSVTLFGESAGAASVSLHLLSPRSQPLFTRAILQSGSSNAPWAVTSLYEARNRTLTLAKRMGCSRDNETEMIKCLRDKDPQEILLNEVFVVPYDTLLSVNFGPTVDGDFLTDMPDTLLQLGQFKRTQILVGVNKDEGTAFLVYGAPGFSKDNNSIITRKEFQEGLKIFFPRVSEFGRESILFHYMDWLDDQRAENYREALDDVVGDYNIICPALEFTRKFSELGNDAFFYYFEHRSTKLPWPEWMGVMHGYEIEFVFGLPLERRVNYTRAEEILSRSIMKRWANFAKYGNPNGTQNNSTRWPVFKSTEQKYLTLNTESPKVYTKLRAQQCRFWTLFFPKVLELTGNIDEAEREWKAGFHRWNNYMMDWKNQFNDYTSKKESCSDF
Each entry below lists one item and its recorded IC50 value.
All answers are understood in nM, so give the number only.

Ask: Please tell me: IC50 of `C#CCN(C)[C@H](C)Cc1ccc(OCCCCCNc2c3c(nc4cc(Cl)ccc24)CCCC3)cc1` , system Cholinesterase (Equus caballus)?
Result: 18.6

Ask: Please tell me: IC50 of `C#CCN(C)[C@H](C)Cc1ccc(OCCCCCCCCNc2c3c(nc4cc(Cl)ccc24)CCCC3)cc1` , system Cholinesterase (Equus caballus)?
Result: 17.6

Ask: Please tell me: IC50 of `C#CCN(C)[C@H](C)Cc1ccc(OCCCNc2c3c(nc4ccccc24)CCCC3)cc1` , system Cholinesterase (Equus caballus)?
Result: 41.4

Ask: Please tell me: IC50 of `C#CCN(C)[C@H](C)Cc1ccc(OCCCCNc2c3c(nc4ccccc24)CCCC3)cc1` , system Cholinesterase (Equus caballus)?
Result: 39.6

Ask: Please tell me: IC50 of `C#CCN(C)[C@H](C)Cc1ccc(OCCCCCCNc2c3c(nc4ccccc24)CCCC3)cc1` , system Cholinesterase (Equus caballus)?
Result: 16.1

Ask: Please tell me: IC50 of `C#CCN(C)[C@H](C)Cc1ccc(OCCCCCCNc2c3c(nc4cc(Cl)ccc24)CCCC3)cc1` , system Cholinesterase (Equus caballus)?
Result: 18.8

Ask: Please tell me: IC50 of `C#CCN(C)[C@H](C)Cc1ccc(OCCNc2c3c(nc4ccccc24)CCCC3)cc1` , system Cholinesterase (Equus caballus)?
Result: 50.6

Ask: Please tell me: IC50 of `C#CCN(C)[C@H](C)Cc1ccc(OCCCCCCCCCCNc2c3c(nc4ccccc24)CCCC3)cc1` , system Cholinesterase (Equus caballus)?
Result: 2.03

Ask: Please tell me: IC50 of `C#CCN(C)[C@H](C)Cc1ccc(OCCCCCNc2c3c(nc4ccccc24)CCCC3)cc1` , system Cholinesterase (Equus caballus)?
Result: 23.5

---

Target: UniProt O42275
Sequence (O42275 whole entry): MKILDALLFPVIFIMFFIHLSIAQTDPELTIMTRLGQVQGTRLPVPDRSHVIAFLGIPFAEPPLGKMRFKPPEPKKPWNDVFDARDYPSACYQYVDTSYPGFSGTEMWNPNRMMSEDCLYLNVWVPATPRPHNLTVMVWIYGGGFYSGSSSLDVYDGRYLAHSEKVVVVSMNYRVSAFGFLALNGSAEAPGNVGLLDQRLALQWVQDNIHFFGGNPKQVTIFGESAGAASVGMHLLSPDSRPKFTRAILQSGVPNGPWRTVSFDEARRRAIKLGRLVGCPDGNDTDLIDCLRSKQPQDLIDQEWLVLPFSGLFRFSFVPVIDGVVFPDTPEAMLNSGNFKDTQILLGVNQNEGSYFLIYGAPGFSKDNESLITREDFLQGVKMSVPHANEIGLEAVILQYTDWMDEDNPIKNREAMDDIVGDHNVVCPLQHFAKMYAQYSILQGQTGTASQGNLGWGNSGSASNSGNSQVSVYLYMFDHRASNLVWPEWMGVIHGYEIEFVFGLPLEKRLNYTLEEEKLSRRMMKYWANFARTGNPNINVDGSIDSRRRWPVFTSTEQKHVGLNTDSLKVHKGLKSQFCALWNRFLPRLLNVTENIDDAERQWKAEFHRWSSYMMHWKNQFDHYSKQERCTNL
Each entry below lists one item and its recorded IC50 value.
All answers are understood in nM, so give the number only.

The following molecules have reported results that may help.
>>> observed_measurement("C#CCN(C)[C@H](C)Cc1ccc(OCCCNc2c3c(nc4cc(Cl)ccc24)CCCC3)cc1")
14.2
>>> observed_measurement("C#CCN(C)[C@H](C)Cc1ccc(OCCCCNc2c3c(nc4ccccc24)CCCC3)cc1")
53
>>> observed_measurement("C#CCN(C)[C@H](C)Cc1ccc(OCCCCCCNc2c3c(nc4cc(Cl)ccc24)CCCC3)cc1")
79.3
>>> observed_measurement("C#CCN(C)[C@H](C)Cc1ccc(OCCCNc2c3c(nc4ccccc24)CCCC3)cc1")
36.1
>>> observed_measurement("C#CCN(C)[C@H](C)Cc1ccc(OCCCCCCCCNc2c3c(nc4ccccc24)CCCC3)cc1")
147

Ask: Please tell me: IC50 of `C#CCN(C)[C@H](C)Cc1ccc(OCCCCCNc2c3c(nc4ccccc24)CCCC3)cc1` , system UniProt O42275?
Result: 77.6

Ask: Please tell me: IC50 of `C#CCN(C)[C@H](C)Cc1ccc(OCCCCCNc2c3c(nc4cc(Cl)ccc24)CCCC3)cc1` , system UniProt O42275?
Result: 82

Ask: Please tell me: IC50 of `C#CCN(CCCCCCNc1c2c(nc3ccccc13)CCCC2)[C@H](C)Cc1ccc(OC)cc1` , system UniProt O42275?
Result: 456

Ask: Please tell me: IC50 of `C#CCN(C)[C@H](C)Cc1ccc(OCCNc2c3c(nc4ccccc24)CCCC3)cc1` , system UniProt O42275?
Result: 83.1
